- ASSAYED_SYSTEM: FLAG-tagged Vanin-1 (AA 22-493, T26I) (Homo sapiens, UniProt O95497, T26I)
- Construct: FLAG-tagged Vanin-1 (AA 22-493, T26I, produced internally); FLAG
- Sequence (O95497 22-493 T26I): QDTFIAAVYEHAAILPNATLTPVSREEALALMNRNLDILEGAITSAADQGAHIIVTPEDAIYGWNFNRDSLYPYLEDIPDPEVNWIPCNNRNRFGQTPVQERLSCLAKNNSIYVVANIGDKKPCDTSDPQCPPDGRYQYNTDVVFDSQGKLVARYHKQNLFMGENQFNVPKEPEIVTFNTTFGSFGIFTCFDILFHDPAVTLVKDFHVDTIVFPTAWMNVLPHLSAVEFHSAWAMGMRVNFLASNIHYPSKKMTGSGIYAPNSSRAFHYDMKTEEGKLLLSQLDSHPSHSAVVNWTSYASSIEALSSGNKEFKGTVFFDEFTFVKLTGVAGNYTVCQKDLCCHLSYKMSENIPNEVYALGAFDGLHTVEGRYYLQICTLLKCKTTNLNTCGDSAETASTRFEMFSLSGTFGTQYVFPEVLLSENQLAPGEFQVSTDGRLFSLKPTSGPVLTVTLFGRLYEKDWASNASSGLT
- ASSAY_OVERVIEW: Vanin-1 enzymatic assay (pantothenic acid formation, RapidFire mass spectrometry)
- CONDITION_DETAILS: 0.1 nM FLAG-tagged Vanin-1, 3 μM D-pantethine, room temperature; geometric mean in case of multiple measurements; read-out: VNN-1 IC50
QUANTITY_NAME: pIC50
Give only the number. pIC50 is defined as minus log10 of concentration in molar units.

Please review the entries below; each comes with its answer.
{"columns": ["COMPOUND", "ASSAYED_SYSTEM", "pIC50"],
 "data": [
  ["CC(=O)N(C)[C@H]1CCN(C(=O)c2ccc(N[C@@H](C)c3nc4ccccc4[nH]3)nc2)C1", "FLAG-tagged Vanin-1 (AA 22-493, T26I) (Homo sapiens, UniProt O95497, T26I)", 8.84],
  ["C[C@H](Nc1ccc(C(=O)N2CC[C@H](N(C)C(=O)C3CCC3)C2)cn1)c1cnc2[nH]ccc2c1 [Example 1.4]", "FLAG-tagged Vanin-1 (AA 22-493, T26I) (Homo sapiens, UniProt O95497, T26I)", 10.00],
  ["CN(C(=O)C1CC1)[C@H]1CCN(C(=O)c2ccc(NCc3csc4ccccc34)nc2)C1", "FLAG-tagged Vanin-1 (AA 22-493, T26I) (Homo sapiens, UniProt O95497, T26I)", 9.54],
  ["CC(=O)N(C)[C@H]1CCN(C(=O)c2ccc(NCc3n[nH]c4ccccc34)nc2)C1", "FLAG-tagged Vanin-1 (AA 22-493, T26I) (Homo sapiens, UniProt O95497, T26I)", 9.44],
  ["CN(C(=O)C1CCC1)[C@H]1CCN(C(=O)c2ccc(NCc3csc4ccccc34)nc2)C1", "FLAG-tagged Vanin-1 (AA 22-493, T26I) (Homo sapiens, UniProt O95497, T26I)", 9.59],
  ["CC(=O)N(C)[C@H]1CCN(C(=O)c2ccc(N[C@@H](C)c3cccc4ccccc34)nc2)C1", "FLAG-tagged Vanin-1 (AA 22-493, T26I) (Homo sapiens, UniProt O95497, T26I)", 9.85],
  ["CC(=O)N(C)[C@H]1CCN(C(=O)c2ccc(N[C@@H](C)c3nc4cc(Cl)c(F)cc4[nH]3)nc2)C1", "FLAG-tagged Vanin-1 (AA 22-493, T26I) (Homo sapiens, UniProt O95497, T26I)", 9.12],
  ["CC1(C#N)CCN(C(=O)c2ccc(NCc3ncn4ccccc34)nc2)C1 (stereo not shown)", "FLAG-tagged Vanin-1 (AA 22-493, T26I) (Homo sapiens, UniProt O95497, T26I)", 9.08]
]}

Exercise: For the compound shown here, "CN(C(=O)C1CC1)[C@H]1CCN(C(=O)c2ccc(NCc3cnc4ccccn34)nc2)C1" , give the reported pIC50.
Key: 9.70
